- tested system: human NaV1.6 (hNaV1.6) (Homo sapiens (Human))
- Sequence (Q9UQD0 whole entry): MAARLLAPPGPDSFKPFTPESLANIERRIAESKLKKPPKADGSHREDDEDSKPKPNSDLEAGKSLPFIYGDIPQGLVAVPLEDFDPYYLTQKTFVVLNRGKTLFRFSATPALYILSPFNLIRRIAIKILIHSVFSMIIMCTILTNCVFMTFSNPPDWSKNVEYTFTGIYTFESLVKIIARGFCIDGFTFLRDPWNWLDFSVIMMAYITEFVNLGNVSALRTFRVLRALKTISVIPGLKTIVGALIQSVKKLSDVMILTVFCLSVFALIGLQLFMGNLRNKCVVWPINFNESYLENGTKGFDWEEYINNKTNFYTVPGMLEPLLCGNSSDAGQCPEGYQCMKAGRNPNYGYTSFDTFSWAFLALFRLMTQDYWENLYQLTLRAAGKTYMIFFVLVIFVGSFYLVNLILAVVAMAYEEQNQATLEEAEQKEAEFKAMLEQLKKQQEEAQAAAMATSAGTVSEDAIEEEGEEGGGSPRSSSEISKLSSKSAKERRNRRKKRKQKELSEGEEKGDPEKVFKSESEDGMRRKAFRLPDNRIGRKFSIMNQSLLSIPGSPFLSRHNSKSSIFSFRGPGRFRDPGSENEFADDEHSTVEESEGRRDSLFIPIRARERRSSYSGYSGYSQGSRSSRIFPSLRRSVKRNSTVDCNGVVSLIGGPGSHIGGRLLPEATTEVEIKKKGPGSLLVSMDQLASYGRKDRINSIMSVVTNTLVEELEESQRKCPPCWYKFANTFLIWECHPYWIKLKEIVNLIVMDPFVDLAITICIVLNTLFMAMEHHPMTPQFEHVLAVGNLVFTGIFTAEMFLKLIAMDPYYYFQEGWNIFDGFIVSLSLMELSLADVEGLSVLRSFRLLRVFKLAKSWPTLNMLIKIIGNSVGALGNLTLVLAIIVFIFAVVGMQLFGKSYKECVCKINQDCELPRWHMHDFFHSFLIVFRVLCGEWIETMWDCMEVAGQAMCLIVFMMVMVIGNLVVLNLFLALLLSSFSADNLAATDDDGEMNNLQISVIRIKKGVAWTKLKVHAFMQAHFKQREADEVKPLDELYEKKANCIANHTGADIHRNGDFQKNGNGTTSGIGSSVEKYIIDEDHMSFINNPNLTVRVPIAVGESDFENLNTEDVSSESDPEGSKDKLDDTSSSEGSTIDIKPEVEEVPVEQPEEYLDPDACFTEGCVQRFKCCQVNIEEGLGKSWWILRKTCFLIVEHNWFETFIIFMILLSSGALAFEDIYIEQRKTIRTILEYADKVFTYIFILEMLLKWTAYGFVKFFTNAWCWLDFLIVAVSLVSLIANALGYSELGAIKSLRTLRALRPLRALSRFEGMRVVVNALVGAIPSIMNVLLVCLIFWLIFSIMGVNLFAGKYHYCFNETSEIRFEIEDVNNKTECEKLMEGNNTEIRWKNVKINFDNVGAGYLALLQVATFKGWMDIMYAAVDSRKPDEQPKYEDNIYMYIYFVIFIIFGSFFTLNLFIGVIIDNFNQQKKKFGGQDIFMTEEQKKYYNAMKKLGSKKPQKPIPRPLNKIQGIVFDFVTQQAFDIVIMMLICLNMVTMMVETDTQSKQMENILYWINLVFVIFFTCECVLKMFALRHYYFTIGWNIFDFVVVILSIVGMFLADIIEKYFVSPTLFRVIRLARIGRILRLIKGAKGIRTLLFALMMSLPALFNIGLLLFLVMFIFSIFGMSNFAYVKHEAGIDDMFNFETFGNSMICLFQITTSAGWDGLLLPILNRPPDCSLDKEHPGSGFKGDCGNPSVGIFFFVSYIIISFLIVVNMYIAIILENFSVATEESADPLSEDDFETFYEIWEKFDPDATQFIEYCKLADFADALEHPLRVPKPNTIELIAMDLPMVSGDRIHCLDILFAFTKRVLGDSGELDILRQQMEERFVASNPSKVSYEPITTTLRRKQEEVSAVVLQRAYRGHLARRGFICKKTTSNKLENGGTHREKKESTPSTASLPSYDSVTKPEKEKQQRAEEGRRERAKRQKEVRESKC
- experimental protocol: INaL inhibition at hNaV1.6, PatchXpress electrophysiology
- Type: cell-based
- condition details: HEK293; 1 μM; HEK-293 cells expressing hNaV1.6; late current evoked by 300 nM ATX-II; read-out: INaL v1.6 (1 μM, % Inhibition)
Readings of inhibition at 1 µM for the listed compounds

Previously resolved entries follow.
| compound | tested system | inhibition at 1 µM |
| --- | --- | --- |
| OCc1cc(-c2ccc(OC(F)(F)F)cc2)nn2c(C(F)(F)F)nnc12 [Compound 186] | human NaV1.6 (hNaV1.6) (Homo sapiens (Human)) | < 30% |
| COc1cc(OC(F)(F)F)ccc1-c1ccc2nnc(C3CC3(F)F)n2n1 (stereo not drawn) [Compound 15] | human NaV1.6 (hNaV1.6) (Homo sapiens (Human)) | > 70% |
| CC(=O)Nc1cc(-c2ccc(OC(F)(F)F)cc2)nn2c(C(F)(F)F)nnc12 [Compound 177] | human NaV1.6 (hNaV1.6) (Homo sapiens (Human)) | < 30% |
| COCc1cc(-c2ccc3nnc(C(F)(F)F)n3n2)ccc1OC(F)(F)F [Compound 117] | human NaV1.6 (hNaV1.6) (Homo sapiens (Human)) | > 70% |
| COCc1nc(-c2ccc(OC(F)(F)F)cc2)cn2c(C(F)(F)F)nnc12 [Compound 192] | human NaV1.6 (hNaV1.6) (Homo sapiens (Human)) | < 30% |
| COC(C)(C)c1ccc(-c2cn3c(C(F)F)nnc3cn2)cc1 [Compound 51] | human NaV1.6 (hNaV1.6) (Homo sapiens (Human)) | < 30% |

### Prompt Notebook: pull reported inhibition at 1 µM for human NaV1.6 (hNaV1.6) (Homo sapiens (Human)), entry FC(F)(F)c1nnc2cnc(-c3ccc([C@@H]4CC4(F)F)cc3)cn12 [Compound 152]
### Response > 70%

### Prompt Notebook: pull reported inhibition at 1 µM for human NaV1.6 (hNaV1.6) (Homo sapiens (Human)), entry FC(F)c1nnc2ccc(-c3ccc([C@@H]4CC4(F)F)cc3)nn12 [Compound 165]
### Response > 70%

### Prompt Notebook: pull reported inhibition at 1 µM for human NaV1.6 (hNaV1.6) (Homo sapiens (Human)), entry FC(F)(F)COc1nnc2cnc(-c3ccc(OC(F)(F)F)cc3)cn12 [Compound 150]
### Response < 30%
